From: paper PMC7954794

B1: S. cerevisiae Abp1 (full length; SH3 domain 535-592 mutated) / Hua2 (parent)
chain 1: MALEPIDYTTHSREIDAEYLKIVRGSDPDTTWLIISPNAKKEYEPESTGSSFHDFLQLFDETKVQYGLARVSPPGSDVEKIIIIGWCPDSAPLKTRASFAANFAAVANNLFKGYHVQVTARDEDDLDENELLMKISNAAGARYSIQTSSKQQGKASTPPVKKSFTPSKSPAPVSKKEPVKTPSPAPAAKISSRVNDNNDDDDWNEPELKERDFDQAPLKPNQSSYKPIGKIDLQKVIAEEKAKEDPRLVQKPTAAGSKIDPSSDIANLKNESKLKRDSEFNSFLGTTKPPSMTESSLKNDDDKVIKGFRNEKSPAQLWAERKAKQNSGNAETKAEAPKPEVPEDEPEGEPDVKDLKSKFEGLAASEKEEEEMENKFAPPPKKSEPTIISPKPFSKPQEPVKAEEAEQPKTDYKKIGNPLPGMHIEADNEEEPEENDDDWDDDEDEAAQPPLPSRNVASGAPVQKEEPEQEEIAPSLPSRNSIPAPKQEEAPEQAPEEEIEEEAEEAAPQLPSRSSAAPPPPPRRATPEKKPKENPWATAEYDYDAAEDNELTFVENDKIINIEFVDDDWWLGELEKDGSKGLFPSNYVSLGN
chain 2: MQQTKFGKMYLDHDSVVEYSEDEIVEADRITLGYKKRLSMIENQMRHLLEDFSLDVQQIEPILADLQKYYDAFLQLLQKRNKSLQCKRSTHQPVPSPMNSQTSTNAKVNLSGKLMKFQLNSVQKFDEENILRILQNKIEFEHYFQIDKGKKQKVLLLAVYQCLNGPTRLHKVLNIEGIIHNNSIRTILGKQVSSSKWTVFLYDVKLVLLAHRQDVPNLETSKMIVRYGDLFPCALYFKDHTAY

variants of: B1; assay: DHFR protein-fragment complementation in yeast (Abp1-DHFR F[1,2] x partner-DHFR F[3]), deep mutational scanning, second methotrexate selection vs reference; conditions: with Hua2; S. cerevisiae, DHFR-PCA selection in liquid with methotrexate at 30 C, two 72 h selections (the score uses the second); reference = the pre-selection culture; not an affinity; scale: DMS score: mean over two replicates of log2(f_test/f_ref + 0.5)/ln 2, minus the synonymous-codon median
Lab note: compare screen value against -2. Equal or greater, write Criterion met. Smaller, write Criterion not met.

Answered examples (3):
chain 1 P584A | Criterion not met
chain 1 I562N | Criterion met
chain 1 P584S | Criterion not met

Would you say chain 1 F564W shows screen value at minimum -2?
Criterion not met

How about chain 1 A545D ?
Criterion met

How about chain 1 G572W ?
Criterion not met
